Experiment: Blood brain barrier penetration / plasma drug levels after intravenous dosing in CD rats
Type: in vivo, rat
Settings: rat, plasma, iv, 10 mg/kg intravenously, time 20 min
Recorded endpoint: concentration at 20 min (ng/mL)
Provide only the numeric value, understood in ng/mL.

Returns the measured concentration at 20 min for the input molecule. Input: Cc1ccc(-c2nc(NCCNc3ccc([N+](=O)[O-])c(N)n3)ncc2-c2ncc[nH]2)c(Br)c1 [G] 3200

Please answer likewise for N#Cc1ccc(NCCNc2ncc(-c3ccncc3)c(-c3ccc(Cl)cc3Cl)n2)nc1 [I] 1160

---

Test system: rat hippocampi cells
Experiment: GSK3 inhibitor protection of rat hippocampi cells from glutamate induced damage (Trypan Blue count)
Type: cell-based
Conditions: rat hippocampal neurons, 200 μM glutamic acid for 5 minutes, counted 20 to 24 hours later; average of 1 to 4 replications
Classification field: enter rule met for Cells Surviving (%) With Glutamate values not below 60%, rule not met for values below it.

Study these solved cases before continuing.
Cc1ccc(-c2nc(NCCNc3ccc([N+](=O)[O-])c(N)n3)ncc2-c2ncc[nH]2)c(Br)c1; rule met
FC(F)(F)c1ccc(NCCNc2ncc(-c3ncc[nH]3)c(-c3ccc(Cl)cc3Cl)n2)nc1; rule not met
Nc1nc(NCCNc2ncc(CO)c(-c3ccc(Cl)cc3Cl)n2)ccc1[N+](=O)[O-]; rule met

Here is the next item to consider.
API: above_or_equal(metric=Cells Surviving (%) With Glutamate, cutoff=60%) for item CNCC(=O)Nc1cnc(NCCNc2ccc([N+](=O)[O-])c(N)n2)nc1-c1ccc(Cl)cc1Cl rule not met

---

Tested on: rat hippocampi cells
Assay: GSK3 inhibitor protection of rat hippocampi cells from glutamate induced damage (Trypan Blue count)
Type: cell-based
Conditions: rat hippocampal neurons, 200 μM glutamic acid for 5 minutes, counted 20 to 24 hours later; average of 1 to 4 replications
Recorded endpoint: Cells Surviving (%) With Glutamate
Provide only the numeric value, understood in %.

Example cases with answers are listed next.
Nc1nc(NCCNc2ncc(-c3ncc[nH]3)c(-c3ccc(F)cc3Br)n2)ccc1[N+](=O)[O-]; 50
N#Cc1ccc(-c2nc(NCCNc3ccc([N+](=O)[O-])cn3)ncc2-n2ccnc2)cc1; 50
Nc1nc(NCCNc2ncc(-c3ncc[nH]3)c(-c3ccc(Cl)cc3Cl)n2)ccc1[N+](=O)[O-]; 59
COCCNC(=O)Cn1c(=O)n(C2CCN(C(=O)N3CCc4ccccc4C3)CC2)c2ccccc21; 73

Next molecule, please.
Returns the measured Cells Surviving (%) With Glutamate for the input molecule. Input: O=[N+]([O-])c1ccc(NCCNc2ccc(-c3ncc[nH]3)c(-c3ccc(Cl)cc3Cl)n2)nc1 67

---

Item-by-item account of concentration at 0 min
Experiment: Blood brain barrier penetration / plasma drug levels after intravenous dosing in CD rats
Type: in vivo, rat
Conditions: rat, plasma, iv, 10 mg/kg intravenously, time 0 min

N#Cc1ccc(NCCNc2ncc(-c3ccncc3)c(-c3ccc(Cl)cc3Cl)n2)nc1 [I]; < 20 ng/mL

Returns the measured concentration at 0 min for the input compound. Input: Cc1ccc(-c2nc(NCCNc3ccc([N+](=O)[O-])c(N)n3)ncc2-c2ncc[nH]2)c(Br)c1 [G] < 20 ng/mL

---

System: rat hippocampi cells
Test: GSK3 inhibitor protection of rat hippocampi cells from glutamate induced damage (Trypan Blue count)
Assay type: cell-based
Conditions: rat hippocampal neurons, 200 μM glutamic acid for 5 minutes, counted 20 to 24 hours later; average of 1 to 4 replications
Description: Hippocampi were dissected from embryonic day 18-19 rats. The tissue was collected in Hibernate™ media (Gibco BRL) and minced into 1 mm pieces. The tissue was dissociated using the Papain Dissociation System (Worthington Biochemical Corporation). […] The number of live and dead (blue) large neurons are counted (at least 200 cells from each well) by phase contrast microscopy and photographed, and the percentage of surviving cells was determined. […]
Item-by-item account of Cells Surviving (%) With Glutamate
Remember to put the unit after the number in your answer.

Example cases with answers are listed next.
Nc1nc(NCCNc2ncc(-n3cc(Cl)ccc3=O)c(-c3ccc(Cl)cc3Cl)n2)ccc1[N+](=O)[O-] [O]; 61%
Nc1nc(NCCNc2ncc(NC(=O)NCCN3CCOCC3)c(-c3ccc(Cl)cc3Cl)n2)ccc1[N+](=O)[O-] [D]; 60%
Nc1nc(NCCNc2ncc(N3C(=O)CCC3=O)c(-c3ccc(Cl)cc3Cl)n2)ccc1[N+](=O)[O-] [M]; 61%

Next compound, please.
Returns the measured Cells Surviving (%) With Glutamate for the input compound. Input: Nc1nc(NCCNc2ncc(-n3ccccc3=O)c(-c3ccc(Cl)cc3Cl)n2)ccc1[N+](=O)[O-] [R] 61%
